Please provide measured pIC50 for the entries that follow.
biological target: Trans-sialidase (Trypanosoma cruzi, UniProt Q26966); assay: Inhibition of Trypanosoma cruzi trans-Sialidase by MuNANA assay
Sequence (Q26966 whole entry): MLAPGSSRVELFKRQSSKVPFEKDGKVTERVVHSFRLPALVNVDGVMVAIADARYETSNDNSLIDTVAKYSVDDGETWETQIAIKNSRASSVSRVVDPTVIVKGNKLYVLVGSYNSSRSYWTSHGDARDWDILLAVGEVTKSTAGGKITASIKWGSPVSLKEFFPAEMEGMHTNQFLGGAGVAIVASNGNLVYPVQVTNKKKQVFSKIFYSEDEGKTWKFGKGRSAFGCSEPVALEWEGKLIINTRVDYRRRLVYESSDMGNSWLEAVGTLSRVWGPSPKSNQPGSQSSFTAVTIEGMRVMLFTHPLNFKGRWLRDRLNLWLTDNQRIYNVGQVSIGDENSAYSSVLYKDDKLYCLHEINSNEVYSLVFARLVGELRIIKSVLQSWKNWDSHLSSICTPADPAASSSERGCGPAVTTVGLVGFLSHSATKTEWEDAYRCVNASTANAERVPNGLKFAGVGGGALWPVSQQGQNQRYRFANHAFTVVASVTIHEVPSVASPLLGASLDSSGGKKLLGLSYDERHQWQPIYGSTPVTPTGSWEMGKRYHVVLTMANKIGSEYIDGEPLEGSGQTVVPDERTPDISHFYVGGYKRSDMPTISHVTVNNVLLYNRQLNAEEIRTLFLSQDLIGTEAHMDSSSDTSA
pIC50 is defined as minus the log10 of a concentration measured in mol/L.

Lookup: pIC50 / Trans-sialidase (Trypanosoma cruzi, UniProt Q26966) / "Cc1ccc(S(=O)(=O)Nc2nnc(SCC(=O)Nc3ccc4c(c3)OCO4)s2)cc1" 3.55

Lookup: pIC50 / Trans-sialidase (Trypanosoma cruzi, UniProt Q26966) / "COc1cccc(/C=C(\CC(=O)O)c2nc3ccccc3s2)c1" 3.51

Lookup: pIC50 / Trans-sialidase (Trypanosoma cruzi, UniProt Q26966) / "CC(=O)c1sccc1NC(=O)c1ccccc1C(=O)O" 3.54

Lookup: pIC50 / Trans-sialidase (Trypanosoma cruzi, UniProt Q26966) / "O=C(O)C/C(=C\c1cccc(C(F)(F)F)c1)c1nc2ccccc2s1" 3.82

Lookup: pIC50 / Trans-sialidase (Trypanosoma cruzi, UniProt Q26966) / "CC(C)Oc1ccccc1/C=C(\CC(=O)O)c1nc2ccccc2s1" 3.82
